Where these numbers come from: paper PMC9007951

Assay: Timed organ biodistribution of [^64Cu]Cu-DOTATATE by ex vivo gamma counting
Type: in vivo, mice
Conditions: mouse, fat, intravenous, 1.85 MBq, total radioactivity; female C57BL/6 mice, 60 min after injection, median (IQR), N=3-7; read-out: Tissue radioactivity, fat
observation_type: tissue uptake at 1 h
Enter the number, and then the unit.

Entry under review: C[C@@H](O)[C@H](NC(=O)[C@@H]1CSSC[C@H](NC(=O)[C@@H](Cc2ccccc2)NC(=O)CN2CCN(CC(=O)O)CCN(CC(=O)O)CCN(CC(=O)O)CC2)C(=O)N[C@@H](Cc2ccc(O)cc2)C(=O)N[C@H](Cc2c[nH]c3ccccc23)C(=O)N[C@@H](CCCCN)C(=O)N[C@@H]([C@@H](C)O)C(=O)N1)C(=O)O [[^64Cu]Cu-DOTATATE, metal not drawn] . Reported tissue uptake at 1 h?
0.3 %ID/g
